These entries and their values trace back to paper PMC7961048.

system: seven human 14-3-3 isoforms
test.details: Affinities averaged or compared across the 14-3-3 family (ΔΔGav, KD ratios, affinity maps)
Type: binding
condition.notes: Figure 4 panel b; 14-3-3τ
observed.property: KD ratios, compared to LRRK2 pS910/pS935, 14-3-3τ
Quick one: just the number, no unit, thanks!

## Task Param item = CC(C)C[C@H](NC(=O)[C@H](CCCNC(=N)N)NC(=O)CCC(=O)NCCCOCCOCCOCCCNC(=O)CCCC[C@@H]1SC[C@@H]2NC(=O)N[C@@H]21)C(=O)N[C@@H](CCC(N)=O)C(=O)N[C@@H](CCCNC(=N)N)C(=O)N[C@@H](CCCNC(=N)N)C(=O)N[C@@H](CCCNC(=N)N)C(=O)N[C@@H](CCC(=O)O)C(=O)N[C@H](C(=O)N[C@@H](CCC(N)=O)C(=O)N[C@H](C(=O)O)C(C)C)[C@@H](C)OP(=O)(O)O [pHPV18E6] ; retrieve measured KD ratios, compared to LRRK2 pS910/pS935, 14-3-3τ.
## Result 3978.95
